test: folding stability dG unfold from trypsin proteolysis; higher = more stable
Measured property: folding stability dG unfold

// worked examples, folding stability dG unfold included
seq_string="SAGGSAGGSAGGSEPWYVRIQIPDGNQIMFPPGSEAKIEIPKEEKDIRITEVIPADDIKSAGGSAGGSAGGS [r4_122_TrROS]" measured_property="folding stability dG unfold" measured="0.0224 kcal/mol"
seq_string="SAGGSAGGSAGGMIKTKDGKVLEFKSLEEALAALKELGVDEVEIEELEPEGVVKVKVKPSAGGSAGGSAGGS [r10_1191_TrROS_Hall]" measured_property="folding stability dG unfold" measured="0.301 kcal/mol"
seq_string="SAGGMKIRIPEGQEVKLKKVRFWHNGKPWKIPNMEIKVDRIDPNDNRVQIEIKHPNGRPHTFAFDIKSAGGS [r8_215_TrROS]" measured_property="folding stability dG unfold" measured="0.459 kcal/mol"
seq_string="SAGEKKKVVIVVHIHIEAESEEDREKALEEARKLAEELARELKEKLGLPEDVKEVVVIVHIHPRSEEEKSAG [r5_436_TrROS_Hall]" measured_property="folding stability dG unfold" measured="2.01 kcal/mol"
seq_string="MIIIPNATPEEVKKIILDAAKKGKEIEILIEVDPNLGPKVIKALKDLPYVKKVEPLPDGSIKVYIDKKNLKS [r1_324_TrMRF]" measured_property="folding stability dG unfold" measured="1.71 kcal/mol"

Complete the entry with folding stability dG unfold for SAGGSAGGKKIRIRIPLPDGTWVEVEVYFSEDGIYSFYIPPTGKLVLIDVGENGIKITIIDLPPSAGGSAGG [r6_58_TrMRF] 4.1 kcal/mol

Query folding stability dG unfold for SPKGIYIFMIQVKWKNPNGNEWTFPIMVPMDEMPEEELRDFIREFFPGFDDVDIEPQVMRIPPSPEAREKSA [r9_841_TrROS] 2.3 kcal/mol

----------
experiment: folding stability dG unfold (combined trypsin and chymotrypsin); higher = more stable
Measured property: folding stability dG unfold (kcal/mol)
Write it as a number; the unit kcal/mol goes unstated.

Write down folding stability dG unfold measured for item SAGGHTIMFPVKSPEQARDEIRDFARDQGLPIEPEDITIEQHEFKDPENGKKYRFFEITIDVTLKPPSAGGS [r16_587_TrROS] 1.02

Note folding stability dG unfold for the sequence shown: SAGGMANPEDFKVVESLEFRDPDNGKPFTIEIAKPPDNNVPIMIWHNGSMYMFVIDGDKIEVFPIKNSAGGS [r16_711_TrROS] 1.75

Indicate the recorded folding stability dG unfold value for this sequence: MEEIKNLPGVKYEPIIEDGEIRLVRFEIPKEVFEKFGKPPVILLVEFSKDGKYRILPESIPKLLELGIIPGS [r1_256_TrMRF] 2.27

Respond only with folding stability dG unfold recorded for SAGGMGVRVEEKVLATSESSTPDGTPVTFTETETKITLPPGTVVTVKKLLETGGGGRKVLEETTSPLASAGG [r13_898_JUSTAS] -0.295

----------
assay: folding stability dG unfold from trypsin proteolysis; higher = more stable
Measured property: folding stability dG unfold (kcal/mol)
Hi! Could you send only the number? It should be in kcal/mol, unit omitted.

Worked cases, answers included:
seq_string="SAGGSAGGSGEVLLLSANSFSFSEGDGLLVVVNLPNGGYVVLPFKKGDLNLNLPSSGYSEFFGSAGGSAGGS [r12_746_TrMRF]" u=kcal/mol measured=1.3
seq_string="SAGGMPIKELTAEEIAALLKEKLGVDVEIEEVKVTVERDENGNYVLRIEVKFKETNETITLEIVLPKSAGGS [r16_42_TrROS_Hall]" u=kcal/mol measured=2.94
seq_string="SENWEPEPITFPDGITIWVMPDYGMIDIIDPDKGTFEMFMIRVDPNGKPEINPLTFKLDPPNGKIKDITPSA [r9_122_TrROS]" u=kcal/mol measured=0.657
seq_string="SAGGSAGGSAGDFELDFEWHRTNDHVVLSNKARDPDNGKPLYISIIFDPDPGKLDISIMPSAGGSAGGSAGG [r17_242_TrROS]" u=kcal/mol measured=0.396
seq_string="SAGGSAGGSAGMTLTVTSPSSDTPIGTIELPSSLSEEELEAAVEAVRAALPPDVTVEVTGSAGGSAGGSAGG [r11_1081_JUSTAS]" u=kcal/mol measured=1.41

Dear colleague, please send me the reported folding stability dG unfold for SAGGSAGGSAGGGNSLSSVRVVPVTLRTSEPLEQDGDPRPREFTETTVVRITETVPPGLSAGGSAGGSAGGS [r10_118_JUSTAS] when you can. 0.0729

Hello, please tell me recorded folding stability dG unfold for this one: SSEILEKLAKELPDLEPVGVEEEPLPDGGRRLTLVARRPETGTYVRVTVDVPPGGGVASVEVEEVPVSRLSA [r9_274_JUSTAS] 0.529

----------
Reported folding stability dG unfold values for a set of sequences
test: folding stability dG unfold (combined trypsin and chymotrypsin); higher = more stable
The response must be a number in kcal/mol with no trailing unit.

seq_string="SAGGSAGGSAGGWFYKRDPDGKPLEPRPVVVIKISYEISYDADGGWKLKLNISIYPVYWISAGGSAGGSAGG [r7_572_TrROS]" measured_property="folding stability dG unfold" measured=4.77

// next entry
Indicate its recorded folding stability dG unfold; the sequence in question is SAGGSAGGSAGSMSLPVTELVVESVDPLEGVLVVKVKGTLPDGSEVELTLEFKPDEPLELSAGGSAGGSAGG [r11_211_JUSTAS] 0.71

----------
test: folding stability dG unfold (combined trypsin and chymotrypsin); higher = more stable
Measured property: folding stability dG unfold (kcal/mol)
# value in kcal/mol; strip the unit string

Study these solved cases before continuing.
seq_string="SAGGSAGGSQWIEIELPLPNGRNIQIEMWPNNGMVDVEWPDGKEVEFPVETADDALDRVLDALSAGGSAGGS [r12_866_TrROS]" measured=0.0352
seq_string="SAGGSAGGSAGMVTRRMTPEEAEKFIADLPSDWSVEEISPLPENDIVEIKIKVEPPFKLQSAGGSAGGSAGG [r17_98_JUSTAS]" measured=1.28

Next, consider the following sequence.
Output folding stability dG unfold of SAMKVYEIPIEIPISKYKPSDIIAALKKALDKLNIPFPEEIIKELTIISIKTGGNISTAIKTLLENGLLSAG [r14_364_TrMRF] 1.56

----------
test: folding stability dG unfold (combined trypsin and chymotrypsin); higher = more stable
Please note: rule met applies when folding stability dG unfold is 2 kcal/mol or greater, and rule not met applies otherwise.

Say whether SAGGSAGGSTWEEVKKKAKEAGPELDFEPSPEGEKKFKIVAPKDKPEAVEALAKEYNVELEIESAGGSAGGS [r12_74_TrMRF] shows folding stability dG unfold of 2 kcal/mol or more. rule not met

Does folding stability dG unfold meet or surpass 2 kcal/mol for SAGGSMVITITFPDGSTVTIPEEELLELLKKYGIEPDESDKEKVAKEAAKIIGEEKGIPIKEVKINSAGGSA [r2_83_JUSTAS] ? rule met

Does folding stability dG unfold meet or surpass 2 kcal/mol for SAGGSAGGSAGGSDKDPDKMKPKPVFEMEIVTYEWEKDGDGDWEPLSVEVQRIRVYAMDSAGGSAGGSAGGS [r4_288_TrROS] ? rule met

Does the sequence SAGGSLEDFELAGTFPATSEGETLLVTVWKSKEPGKYVVSAYYPSTGIPEVKVVNPEDIEEFFKNLYSAGGS [r8_469_TrMRF] have recorded folding stability dG unfold that is 2 kcal/mol or more? rule not met

Decide: folding stability dG unfold of SAGGSAGGSAGGEPIPTKTIEVDEATGTVTVTVTFPPPNETVTVTRPAPPDVSLEEVLASAGGSAGGSAGGS [r10_676_JUSTAS] >= 2 kcal/mol? rule not met

State whether the measured folding stability dG unfold reaches 2 kcal/mol, counting equality as reaching it, for SAGGSAGGSAGGKTVLISLEDLEALKKLPPGAKVKIEPIKTPEGTVYRVNVETGKIEKVPSAGGSAGGSAGG [r7_765_TrROS_Hall] rule not met

----------
Overview of recorded folding stability dG unfold for various sequences
assay: folding stability dG unfold from chymotrypsin proteolysis; higher = more stable
Express the result in kcal/mol but write the number alone.

seq_string="SANMPPGDWKPINIKVKIERPGGKPEFEYPIYKHPDGMIMIFIHFPIPPGAYKIKIEFPGNGKENEFKFSAG [r14_280_TrROS]" measured=2.84
seq_string="SAGGMNIVTYTLTIPPGRIEEVKEAIEALGIPVVKVELVEVLPGEGLAIVKIEVPNNVDPEKVKKALSSAGG [r13_725_JUSTAS]" measured=4.13
seq_string="SAGGMVKVLKVETYPGTGEVIVTMELPGNTVATVRIPRAPDAPLTVSPDGVVTVPTAPVTELETTAPSAGGS [r16_515_JUSTAS]" measured=0.591

Now examine the next entry.
Report folding stability dG unfold for SAGGSAGGSAGGSMPVKLDEIIDYDPKKKVLTVLLTHPDGSKSLVVVPGKSIEEIKEANSAGGSAGGSAGGS [r4_357_TrMRF] 0.709
